Target Or Test System: baboon FXI (Papio anubis (baboon))
Procedure Text: ELISA
Metric: pEC50
Give bare numbers, as −log10 of the molar value.

get_value(item= 1A6 (antibody, V domains shown) VH: QVTLKESGPGILKPSQTLSLTCSFSGFSLSTSGMGVGWIRQPSGKGLEWLAHIWWDDDKYYNPSLKSQLTISKDTSRNQVFLKITSVDAADTATYYCARKRSSVVAHYYAMDYWGQGTSVTVSS VL: DIVLTQSPASLAVSLGQRATISCKASQSVDYDGDSYLNWYQQKPGQPPKLLIYAASNLESGIPARFSGSGSGTDFTLNIHPVEEEDAATYYCQQSNGDPWTFGGGTKLEIK , readout=pEC50) returns 9.80
